Source of measurements: the supplement of paper PMC11451515

For each of the compounds below, state its cell viability.
- Test system: P12-Ichikawa
- run-description: cell viability relative to DMSO control; higher = less cytotoxic
- test-parameters: HPLM + 10% dialyzed FBS; 48 h; 1.71 µM
Give bare numbers, in %.

See these solved cases before continuing.
compound: N#Cc1ccc(NC(=O)Nc2ccccc2Br)c2nn[nH]c12
tested-on: P12-Ichikawa
unit-of-measurement: %
cell viability: 116

compound: N=C(N)Nc1ccc(C(=O)Oc2ccc3cc(C(=N)N)ccc3c2)cc1
tested-on: P12-Ichikawa
unit-of-measurement: %
cell viability: 83.9

compound: COC(=O)Nc1nc2ccc([S+]([O-])c3ccccc3)cc2[nH]1 (stereo unspecified)
tested-on: P12-Ichikawa
unit-of-measurement: %
cell viability: 119

compound: CN(C(Cc1ccc(O[S+](=O)([O-])c2cccc3cnccc23)cc1)C(=O)N1CCN(c2ccccc2)CC1)[S+](=O)([O-])c1cccc2cnccc12 (stereo unspecified)
tested-on: P12-Ichikawa
unit-of-measurement: %
cell viability: 102

compound: CCOC(=O)O[C@]1(C(=O)OCCl)CC[C@H]2[C@@H]3CCC4=CC(=O)C=C[C@]4(C)[C@H]3[C@@H](O)C[C@@]21C
tested-on: P12-Ichikawa
unit-of-measurement: %
cell viability: 104

For every listed record, write down its cell viability.
1. CO[C@@H]1[C@@H](O)[C@H](O)[C@@H](n2c3c(Cl)cccc3c3c4c(c5c6cccc(Cl)c6[nH]c5c32)C(=O)NC4=O)O[C@H]1CO
2. Nc1nc(N)c(N=O)c(OCC2CCCCC2)n1
3. COc1cc2c(Nc3ccc(Cl)c(Cl)c3F)ncnc2cc1OC[C@@H]1C[C@@H]2CN(C)C[C@@H]2C1
4. O=C(O)Cc1cccc(OCCCN(Cc2cccc(C(F)(F)F)c2Cl)CC(c2ccccc2)c2ccccc2)c1
5. COC(=O)C/1=C(C)/N/C(=C(\C1C2=CC(=CC=C2)[N+]([O-])=O)C(=O)OCCCN3CCC(CC3)(C4=CC=CC=C4)C5=CC=CC=C5)C (stereo unspecified)
6. CC1=C(/C=C/C(C)=C/C=C/C(C)=C/C(=O)O)C(C)(C)CCC1

Result:
1. 5.78
2. 81.1
3. 104
4. 108
5. 107
6. 126

For every listed record, write down its cell viability.
1. CN(C)CCc1c[nH]c2ccc(C[S+](=O)([O-])N3CCCC3)cc12
2. O=[S+]([O-])(NCCNC/C=C/c1ccc(Br)cc1)c1cccc2cnccc12
3. COc1cc(OC)c(C(=O)CCCN2CCCC2)c(OC)c1
4. CC[C@@H]1C(=O)N(C)c2cnc(Nc3ccc(C(=O)NC4CCN(C)CC4)cc3OC)nc2N1C1CCCC1
5. Oc1ccc(-c2ccc(-c3cc(Nc4cccc(CNC5CC5)c4)[nH]n3)cc2)c(O)c1

Result:
[111, 100, 113, 16, 92.3]

---

For each of the compounds below, state its cell viability.
- System: NOMO1
- run-description: cell viability relative to DMSO control; higher = less cytotoxic
- test-parameters: RPMI 5 mM glucose + 10% dialyzed FBS; 48 h; 0.0211 µM
One number for each entry, in %.

compound: CN(C(Cc1ccc(O[S+](=O)([O-])c2cccc3cnccc23)cc1)C(=O)N1CCN(c2ccccc2)CC1)[S+](=O)([O-])c1cccc2cnccc12 (stereo not given)
tested-on: NOMO1
unit-of-measurement: %
cell viability: 94.5
--
compound: N#C/C(=C1/Nc2ccccc2S1)c1ccnc(OCc2ccc(CN3CCOCC3)cc2)n1
tested-on: NOMO1
unit-of-measurement: %
cell viability: 120
--
compound: OCCN(CCO)c1nc(N2CCCCC2)c2nc(N(CCO)CCO)nc(N3CCCCC3)c2n1
tested-on: NOMO1
unit-of-measurement: %
cell viability: 115
--
compound: Nc1nc(NCCNc2ncc(-n3ccnc3)c(-c3ccc(Cl)cc3Cl)n2)ccc1[N+](=O)[O-]
tested-on: NOMO1
unit-of-measurement: %
cell viability: 136

For every listed record, write down its cell viability.
1. O=C(NCC1CCOCC1)c1cnc(Nc2ccc(Cl)cc2Cl)nc1C(F)(F)F
2. Cc1cnc(Nc2ccc(N3CCN(C)CC3)cc2)nc1Nc1cccc([S+](=O)([O-])NC(C)(C)C)c1

Result:
122
111
